Test system: C-33A cells (ATCC HTB-31)
protocol_notes: Cytotoxicity in transfected cells, cell viability with CellTiter-Glo
applied_conditions: C-33 A cells transfected with HPV16 (KP212151.1) plasmids, 48 hours

compound_smiles	CC50, µM
CN(C)C(=O)N1CCN(c2ccnc3c(O)c([N+](=O)[O-])ccc23)CC1	7.53

====

System: C-33A cells (ATCC HTB-31)
protocol_notes: Cytotoxicity in transfected cells, cell viability with CellTiter-Glo
applied_conditions: C-33 A cells transfected with HPV18 (KC470230.1) plasmids, 48 hours

compound_smiles	CC50 (µM)
CN(C)C(=O)N1CCN(c2ccnc3c(O)c([N+](=O)[O-])ccc23)CC1	5.88

====

Catalogue of compounds with associated EC50
Tested on: Human Papillomavirus 11 (HPV11)
protocol_notes: Transient transfection HPV replication assay (E1/E2 plasmids, NanoLuc reporter), HPV11
Format: cell-based
applied_conditions: human papillomavirus 11; HPV11 strain HE611260.1, C-33 A cells, 48 hours
Where a name gives a salt, the structure may show the parent alone.

compound	EC50 [nM]
Cc1ccnc2c(O)c(C#N)cc(Cl)c12	530
O=[N+]([O-])c1ccc(O)c2ncccc12 [Compound A2, 5-nitro-8-hydroxyquinoline, reference compound]	1040
CNc1c([N+](=O)[O-])c(O)c2ncccc2c1Cl	5220
O=[N+]([O-])c1cc(Cl)c2c(C(F)(F)F)ccnc2c1O [Compound 73, hydrochloride]	60

====

Catalogue of molecules with associated EC50
Test system: Human Papillomavirus 11 (HPV11)
protocol_notes: Transient transfection HPV replication assay (E1/E2 plasmids, NanoLuc reporter), HPV11
Assay type: cell-based
applied_conditions: human papillomavirus 11; HPV11 strain HE611260.1, C-33 A cells, 48 hours

molecule	EC50
O=[N+]([O-])c1ccc2c(Cl)c(C3CC3)cnc2c1O	570 nM
O=[N+]([O-])c1ccc2c(C3CCCCC3)ccnc2c1O	< 50 nM
N#Cc1c(Cl)c(Cl)c2cccnc2c1O [Compound 133, 5,6-dichloro-7-cyano-8-hydroxyquinoline]	> 1200 nM
O=[N+]([O-])c1c(Cl)c(F)c2cccnc2c1O	> 6000 nM
O=[N+]([O-])c1c(Br)c(Cl)c2cccnc2c1O	> 6000 nM
O=[N+]([O-])c1cc(Cl)c2c(N3CCCCC3)ccnc2c1O	< 50 nM
O=[N+]([O-])c1cc(Cl)c2c(Cl)ccnc2c1O	2960 nM

====

protocol_notes: Cytotoxicity in transfected cells, cell viability with CellTiter-Glo
applied_conditions: human, CC50, C-33 A cells transfected with HPV16 (KP212151.1) plasmids, 48 hours
Where a name gives a salt, the structure may show the parent alone.
readout_type: CC50 at 48 h (µM)

molecule	value
O=[N+]([O-])c1cc(Cl)c2c(C(F)(F)F)ccnc2c1O [Compound 73, hydrochloride]	8.32

====

protocol_notes: in vitro
applied_conditions: human, CC50
readout_type: CC50 at 48 h (µM)

molecule	readout_type	unit_name	value
O=[N+]([O-])c1c(Cl)c(F)c2cccnc2c1O	CC50 at 48 h	µM	29.8
N#Cc1c(Cl)c(Cl)c2cccnc2c1O [Compound 133, 5,6-dichloro-7-cyano-8-hydroxyquinoline]	CC50 at 48 h	µM	5.59
O=[N+]([O-])c1ccc2c(Cl)c(C3CC3)cnc2c1O	CC50 at 48 h	µM	34.4
O=[N+]([O-])c1c(Cl)c(Cl)c2cccnc2c1O	CC50 at 48 h	µM	112
Cc1cc(C#N)c(O)c2ncccc12	CC50 at 48 h	µM	20.2
O=[N+]([O-])c1ccc2c(C(F)(F)F)ccnc2c1O	CC50 at 48 h	µM	5.5
CNc1c([N+](=O)[O-])c(O)c2ncccc2c1Cl	CC50 at 48 h	µM	19.1

====

System: C-33A cells (ATCC HTB-31)
protocol_notes: Cytotoxicity in transfected cells, cell viability with CellTiter-Glo
applied_conditions: C-33 A cells transfected with HPV11 (HE611260.1) plasmids, 48 hours
Catalogue of compounds with associated CC50
readout_type: CC50 (µM)

compound	unit_name	value
CN(C)C(=O)N1CCN(c2ccnc3c(O)c([N+](=O)[O-])ccc23)CC1 [Example 25]	µM	3.36
O=[N+]([O-])c1ccc2c(NC3COC3)ccnc2c1O [Example 19, 7-nitro-4-(3-oxetanylamino)quinolin-8-ol]	µM	4

====

System: Human Papillomavirus 11 (HPV11)
protocol_notes: Transient transfection HPV replication assay (E1/E2 plasmids, NanoLuc reporter), HPV11
Type: cell-based
applied_conditions: human papillomavirus 11; HPV11 strain HE611260.1, C-33 A cells, 48 hours
readout_type: EC50

1) Cc1cc(C#N)c(O)c2ncccc12 > 6 µM
2) O=[N+]([O-])c1c(Cl)c(Cl)c2cccnc2c1O > 30 µM
3) O=[N+]([O-])c1ccc2c(C(F)(F)F)ccnc2c1O > 1.2 µM
